Tested on: NCI/ADR-RES ovarian
assay.notes: NCI-60 one-dose screen, 48 h (100 = growth as untreated, 0 = no growth, -100 = all killed)
particulars: 10 µM unless noted
Experimental: Growth inhibition of the NCI/ADR-RES human […] tumor cell line is measured as a screen for anti-cancer activity. Cells are grown in 96 well plates and exposed to the test compound for 48 hours. Compounds are tested at a single concentration, which is 10^-5 M for most compounds. The reported endpoint is percent growth (GI% or GIPRCNT), where numbers from 0 - 100% represent growth inhibition, and numbers from -100% - 0 represent cell death. For example, a value of 40 represents 60% growth inhibition. […]
This is part of a sample that, as a whole, favours compounds with a hit. Of some 83,000 tested, about 20% had one in any assay.
measure.name: growth (%)

>>> experimental_value("CCC1(C(N)=O)CC2C=CC1CC2 (stereo unspecified)")
244
>>> experimental_value("CCCCCCCCCCCCCCCCNc1ccccc1")
104
>>> experimental_value("CCCC(=O)Oc1ccc(/C(=C(\\C)c2ccc(OC)cc2)c2ccc(OCCN3CCCCC3)cc2)cc1")
75.6
>>> experimental_value("N#Cc1c(N)nc(Cl)c(C#N)c1C(=O)c1ccccc1")
81.4
>>> experimental_value("OCCOCC(F)(F)F")
106
>>> experimental_value("c1ccc2c(c1)Oc1cccnc1-n1nccc1-2")
100

---

This listing pairs compounds with measured growth.
System: SK-MEL-2 melanoma
assay.notes: NCI-60 one-dose screen, 48 h (100 = growth as untreated, 0 = no growth, -100 = all killed)
particulars: 10 µM unless noted
The panel holds about 83,000 compounds, 20% with a hit somewhere; the sample as a whole holds those more often. The source made the active and inactive calls. The calls were made as follows: active = growth percent below 10; inactive = the rest.
measure.name: growth

>>> experimental_value("O=C(Cn1c2ccccc2c2ccncc21)N/N=C\\c1ccc2ccccc2c1")
"63.8% (inactive)"
>>> experimental_value("Cc1cc(O[C@@H]2O[C@@H](C)[C@H](O)[C@@H](O)[C@H]2O)c2c3c(c(O[C@@H]4O[C@@H](C)[C@H](O)[C@@H](O)[C@H]4O)cc2c1)C(=O)c1c(O)cccc1C3=O")
"90.4% (inactive)"
>>> experimental_value("Cc1cn(-c2nc3c(c(NCc4ccccc4)n2)COCC3)c2cccc(C(N)=O)c12")
"38.1% [0.5 µM] (inactive)"
>>> experimental_value("Cl[C@@H]1CCO[C@H](c2cc3ccccc3c3ccccc23)C1")
"101% (inactive)"

---

Test system: NCI-H522 lung
assay.notes: NCI-60 one-dose screen, 48 h (100 = growth as untreated, 0 = no growth, -100 = all killed)
particulars: 10 µM unless noted
This is part of a sample that, as a whole, favours compounds with a hit. Of some 83,000 tested, about 20% had one in any assay.
measure.name: growth (%)

>>> experimental_value("COc1ccc(C[C@H](N)C(=O)N[C@@H]2[C@@H](CO)OC(n3cnc4c(N(C)C)ncnc43)[C@@H]2O)cc1 (some centres not stated)")
-68.7
>>> experimental_value("CCOC(=O)c1[nH]c(-c2ccc(Cl)cc2)cc1-c1cccnc1")
-1.79
>>> experimental_value("CC(C)(C)OC(=O)N1CCN(CCn2cc(C(F)(F)F)c3c(Cl)ncnc32)CC1")
-2.6
>>> experimental_value("C=C1C(=O)O[C@H]2[C@H]1CC/C(COC(=O)c1ccc(C#N)cc1)=C\\CC[C@@]1(C)O[C@@H]21")
-89.6
>>> experimental_value("c1cncc(-c2nc3ccccc3[nH]2)c1")
99.8
>>> experimental_value("COc1cc(/C=C/C(=O)c2c(C)n([O-])c3cc(C)c(C)cc3[n+]2=O)cc(OC)c1OC")
33.6
>>> experimental_value("Clc1ccc2c(c1)nnn1c3ncccc3c(Br)c21")
67.8

# credit: PubChem BioAssay (NCI)
